- target-system: KAT6A Full length enzyme (Homo sapiens (Human))
- Sequence (Q92794 other isoform, or with tags, fused parts or gaps): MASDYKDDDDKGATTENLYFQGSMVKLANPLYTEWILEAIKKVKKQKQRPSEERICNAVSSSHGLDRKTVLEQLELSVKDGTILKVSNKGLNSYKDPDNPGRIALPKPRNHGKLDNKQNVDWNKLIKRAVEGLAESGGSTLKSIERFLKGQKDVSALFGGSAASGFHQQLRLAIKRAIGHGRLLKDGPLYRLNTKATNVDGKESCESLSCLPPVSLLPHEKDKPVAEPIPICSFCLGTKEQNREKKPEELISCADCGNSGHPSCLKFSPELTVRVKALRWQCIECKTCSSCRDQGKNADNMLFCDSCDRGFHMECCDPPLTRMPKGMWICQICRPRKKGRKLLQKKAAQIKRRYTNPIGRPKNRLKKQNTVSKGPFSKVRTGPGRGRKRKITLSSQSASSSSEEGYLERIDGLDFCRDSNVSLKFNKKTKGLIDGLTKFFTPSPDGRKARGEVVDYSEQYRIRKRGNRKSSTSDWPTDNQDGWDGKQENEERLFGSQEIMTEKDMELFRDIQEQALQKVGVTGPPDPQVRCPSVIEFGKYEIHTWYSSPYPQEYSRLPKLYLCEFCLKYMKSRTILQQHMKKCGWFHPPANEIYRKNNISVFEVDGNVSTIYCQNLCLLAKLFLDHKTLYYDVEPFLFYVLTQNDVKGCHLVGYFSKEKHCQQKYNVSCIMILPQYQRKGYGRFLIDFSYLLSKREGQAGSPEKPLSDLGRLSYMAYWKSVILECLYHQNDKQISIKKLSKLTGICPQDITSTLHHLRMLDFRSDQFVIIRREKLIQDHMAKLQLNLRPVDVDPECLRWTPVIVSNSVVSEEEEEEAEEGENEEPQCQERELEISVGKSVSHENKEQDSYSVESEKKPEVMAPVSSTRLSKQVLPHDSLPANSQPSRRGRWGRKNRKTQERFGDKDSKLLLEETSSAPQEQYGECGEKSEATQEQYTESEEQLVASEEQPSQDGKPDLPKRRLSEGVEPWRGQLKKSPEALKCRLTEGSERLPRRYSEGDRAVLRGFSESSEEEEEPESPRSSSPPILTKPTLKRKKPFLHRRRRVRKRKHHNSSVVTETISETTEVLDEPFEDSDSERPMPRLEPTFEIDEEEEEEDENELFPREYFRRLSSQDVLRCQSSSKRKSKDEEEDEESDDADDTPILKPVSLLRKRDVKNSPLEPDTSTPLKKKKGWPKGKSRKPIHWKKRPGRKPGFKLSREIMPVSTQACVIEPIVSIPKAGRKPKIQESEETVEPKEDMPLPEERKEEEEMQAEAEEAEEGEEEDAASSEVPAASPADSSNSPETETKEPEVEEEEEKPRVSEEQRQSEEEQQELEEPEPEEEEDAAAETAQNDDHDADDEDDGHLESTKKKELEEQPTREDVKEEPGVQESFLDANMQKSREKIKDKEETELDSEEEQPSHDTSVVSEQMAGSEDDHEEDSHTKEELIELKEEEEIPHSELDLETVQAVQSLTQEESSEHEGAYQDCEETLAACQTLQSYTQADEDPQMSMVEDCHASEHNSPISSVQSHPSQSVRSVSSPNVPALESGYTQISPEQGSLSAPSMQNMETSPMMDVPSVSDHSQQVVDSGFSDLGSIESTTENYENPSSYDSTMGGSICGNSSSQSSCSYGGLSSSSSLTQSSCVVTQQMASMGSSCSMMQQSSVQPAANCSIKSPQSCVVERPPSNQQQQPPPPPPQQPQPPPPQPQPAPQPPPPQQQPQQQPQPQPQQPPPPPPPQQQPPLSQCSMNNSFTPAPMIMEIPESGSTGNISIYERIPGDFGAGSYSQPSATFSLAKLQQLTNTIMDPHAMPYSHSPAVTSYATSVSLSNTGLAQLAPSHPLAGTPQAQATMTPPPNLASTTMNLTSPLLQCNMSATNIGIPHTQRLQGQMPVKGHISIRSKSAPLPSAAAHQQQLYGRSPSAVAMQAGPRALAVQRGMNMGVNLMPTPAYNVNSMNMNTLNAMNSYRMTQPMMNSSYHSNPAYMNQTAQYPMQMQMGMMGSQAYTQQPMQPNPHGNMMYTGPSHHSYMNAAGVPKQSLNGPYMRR
- measurement-notes: KAT6A assay (SAMDI-MS acetylation of H3 1-21 peptide)
- Format: biochemical
- condition-parameters: replicate number in parentheses; read-out: KAT6A Ki (nM) (replicate)
Decision: Ki beneath 1 nM gives met; Ki meeting or exceeding 1 nM gives not met.

| compound | assigned-class |
| --- | --- |
| COc1cc2c(NS(=O)(=O)c3c(OC)cc(C4CCOC4)cc3OC)noc2cc1Nc1cc(C2CC2)n[nH]1 (single isomer, unassigned) [Example 267] | not met |
| COc1cc2c(NS(=O)(=O)c3c(OC)cc(N4CC(F)C4)cc3OC)noc2cc1Nc1cc(C2CC2)n[nH]1 | met |
| COc1cc2c(NS(=O)(=O)c3c(OC)cc(C4CCOCC4)cc3OC)noc2cc1Nc1cc(C2CC2)n[nH]1 | met |
| COc1cc2c(NS(=O)(=O)c3c(OC)cc(C(=O)N4CC(F)(F)C4)cc3OC)noc2cc1Nc1cc(C2CC2)n[nH]1 | not met |

----------
Property: Ki; scope: individual molecules
- target-system: UniProt Q92794
- measurement-notes: KAT6A assay (SAMDI-MS acetylation of H3 1-21 peptide)
- Assay type: biochemical
- condition-parameters: Morrison equation fit; replicate number in parentheses; read-out: KAT6A Ki (nM) (replicate number)

| molecule | target-system | Ki |
| --- | --- | --- |
| COc1cc2c(NS(=O)(=O)c3c(OC)cccc3OC)noc2cc1Nc1c(C#N)c(C)nn1C | UniProt Q92794 | > 377 nM |
| COc1cccc(OC)c1S(=O)(=O)Nc1noc2cc(Nc3cc(C4CC4)n[nH]3)c(F)c(OC)c12 | UniProt Q92794 | 2.6 nM |
| COc1cc2c(NS(=O)(=O)c3c(OC)cc(-c4ccccn4)cc3OC)noc2cc1Nc1cc(C2CC2)n[nH]1 | UniProt Q92794 | 0.9 nM |
| CCc1cc(Nc2cc3onc(NS(=O)(=O)c4ccc(-c5ccccc5)cc4)c3cc2OC)n[nH]1 | UniProt Q92794 | 13 nM |
| COc1cc2c(NS(=O)(=O)c3c(OC)cc(-c4ccn(C)n4)cc3OC)noc2cc1Nc1cc(C2CC2)n[nH]1 | UniProt Q92794 | 0.3 nM |
| COc1cc2c(NS(=O)(=O)c3c(OC)cccc3OC)noc2cc1Nc1cc(C(C)(C)C)n[nH]1 | UniProt Q92794 | 11.8 nM |
| CCc1cc(Nc2cc3onc(NS(=O)(=O)c4c(OC)cc(C5COCCO5)cc4OC)c3cc2OC)[nH]n1 (single isomer, unassigned) [Example 240] | UniProt Q92794 | 1.2 nM |
| COc1cc2c(NS(=O)(=O)c3c(OC)cc(N4C(=O)CCC4C)cc3OC)noc2cc1Nc1cc(C2CC2)n[nH]1 (single isomer, unassigned) [Example 245] | UniProt Q92794 | 0.7 nM |
| COc1cc2c(NS(=O)(=O)c3c(OC)cccc3OC)noc2cc1Nc1cc(C2CC(F)(F)C2)[nH]n1 | UniProt Q92794 | 5.3 nM |
| COc1cc2c(NS(=O)(=O)c3c(OC)cccc3OC)noc2cc1Nc1nc[nH]n1 | UniProt Q92794 | 0.2 nM |
| COc1cc2c(NS(=O)(=O)c3c(OC)cc(-c4ncc(N5CCN(C)CC5)cn4)cc3OC)noc2cc1Nc1cc(C2CC2)n[nH]1 | UniProt Q92794 | 0.3 nM |
| COc1cc2c(NS(=O)(=O)c3c(OC)cc(C4CCCCN4C)cc3OC)noc2cc1Nc1cc(C2CC2)n[nH]1 (racemic) [Example 155] | UniProt Q92794 | 2.9 nM |
| COc1ccccc1S(=O)(=O)Nc1noc2cc(Nc3cc[nH]n3)cc(OC)c12 | UniProt Q92794 | 0.8 nM |
| COc1cc2c(NS(=O)(=O)c3c(OC)cccc3OC)noc2cc1Nc1cc([C@H](C)O)n[nH]1 (single isomer, unassigned) | UniProt Q92794 | 8.9 nM |
| COc1cc2c(NS(=O)(=O)c3c(OC)cc(CN4CCCC(F)(F)C4)cc3OC)noc2cc1Nc1cc(C2CC2)n[nH]1 | UniProt Q92794 | 0.7 nM |
| COc1cc2c(NS(=O)(=O)c3c(OC)cc(-n4ncccc4=O)cc3OC)noc2cc1Nc1cc(C2CC2)n[nH]1 | UniProt Q92794 | 1.5 nM |
| COc1cc2c(NS(=O)(=O)c3c(OC)cc(C4CCCN4CC(F)F)cc3OC)noc2cc1Nc1cc(C2CC2)n[nH]1 (single isomer, unassigned) [Example 165] | UniProt Q92794 | 1.4 nM |
